# Assay details: Bioavailability / pharmacokinetic study in rats
# Format: in vivo
# Assay context: male, CD, blood; rat, oral gavage, 100 mg/kg DHAdC or DHAdC equivalent; read-out: Cmax
Measured attribute: Cmax
Reply with a number, then the unit it belongs to.

Q. Cmax for NC1=NC(=O)N([C@H]2C[C@H](O)[C@@H](CO)O2)CN1 [DHAdC, 5,6-dihydro-5-aza-2′-deoxycytidine] ?
A. 1860 ng/mL

----------
# Assay details: Bioavailability / pharmacokinetic study in rats
# Type: in vivo
# Assay context: male, CD, blood; rat, IV, 100 mg/kg DHAdC; read-out: Cmax
Measured attribute: Cmax (ng/mL)
Report the figure in ng/mL without appending any unit label.

Q. Could you tell me which Cmax is on file for NC1=NC(=O)N([C@H]2C[C@H](O)[C@@H](CO)O2)CN1 [DHAdC, 5,6-dihydro-5-aza-2′-deoxycytidine] ?
A. 40000

----------
# Assay details: Bioavailability / pharmacokinetic study in rats
# Assay type: in vivo
# Assay context: male, CD, blood; rat, IV, 100 mg/kg DHAdC
Measured attribute: AUC(0-inf) (ng·h/mL)
The answer is to be given in ng·h/mL; state only the numeric part.

Q. Given NC1=NC(=O)N([C@H]2C[C@H](O)[C@@H](CO)O2)CN1 [DHAdC, 5,6-dihydro-5-aza-2′-deoxycytidine] , state its recorded AUC(0-inf).
A. 75000

----------
# Assay details: Bioavailability / pharmacokinetic study in rats
# Assay type: in vivo
# Assay context: male, CD, blood; rat, oral gavage, 100 mg/kg DHAdC or DHAdC equivalent
Measured attribute: bioavailability (%)
Please respond with the number in % and leave the unit unwritten.

Q. Reported bioavailability for NC1=NC(=O)N([C@H]2C[C@H](O)[C@@H](CO)O2)CN1 [DHAdC, 5,6-dihydro-5-aza-2′-deoxycytidine] : what is it?
A. 11

----------
# Assay details: Bioavailability / pharmacokinetic study in dogs
# Assay type: in vivo, Canis familiaris
# Assay context: both sexes, blood; dog, IV, 50 mg/kg DHAdC
Measured attribute: half-life (h)
State the answer as a number, implicitly in h.

Q. Find the recorded half-life belonging to NC1=NC(=O)N([C@H]2C[C@H](O)[C@@H](CO)O2)CN1 [DHAdC, 5,6-dihydro-5-aza-2′-deoxycytidine] and report it.
A. 2.1

----------
# Assay details: Bioavailability / pharmacokinetic study in rats
# Type: in vivo
# Assay context: male, CD, blood; rat, oral gavage, 100 mg/kg DHAdC or DHAdC equivalent
Measured attribute: half-life (min)
Value expressed in min; do not type the unit.

Q. Dear colleague, I am looking for the recorded half-life of the following compound: NC1=NC(=O)N([C@H]2C[C@H](O)[C@@H](CO)O2)CN1 [DHAdC, 5,6-dihydro-5-aza-2′-deoxycytidine]
A. 48

----------
# Assay details: Bioavailability / pharmacokinetic study in rats
# Assay type: in vivo
# Assay context: male, CD, blood; rat, IV, 100 mg/kg DHAdC
Measured attribute: half-life (h)
Give the number; h is assumed, so skip it.

Q. For NC1=NC(=O)N([C@H]2C[C@H](O)[C@@H](CO)O2)CN1 [DHAdC, 5,6-dihydro-5-aza-2′-deoxycytidine] , what is its reported half-life?
A. 1.8
